Target: T1, human GFRAL (human, UniProt Q6UXV0 19-394)
T1 sequence (looked up): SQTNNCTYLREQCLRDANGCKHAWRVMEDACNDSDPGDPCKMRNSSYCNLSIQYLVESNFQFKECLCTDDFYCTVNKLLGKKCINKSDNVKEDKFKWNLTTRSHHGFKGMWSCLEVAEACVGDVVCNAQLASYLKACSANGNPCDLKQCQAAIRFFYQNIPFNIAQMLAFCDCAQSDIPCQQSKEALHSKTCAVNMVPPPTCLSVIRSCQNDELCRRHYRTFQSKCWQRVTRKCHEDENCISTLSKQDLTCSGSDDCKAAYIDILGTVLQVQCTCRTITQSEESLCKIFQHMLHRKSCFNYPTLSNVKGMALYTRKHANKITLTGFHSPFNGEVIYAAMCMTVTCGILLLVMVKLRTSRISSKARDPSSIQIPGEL
Assay: cell-based or functional assay
Recorded endpoint: GDF15 activity (EC50, pM)
Value expressed in pM; do not type the unit.

[ask] Entry MLC105 (ligand, Moiety B (HOOC-(CH2)16-CO-gGlu-2XADO-EDA-CO-CH2) on 17C of Linker (48C of fusion polypeptide)) HGEGTFTSDVSSYLEEQAAKEFIAWLVRGGGGAQPGAQPGAQPGAQPCQAPGAQPGAQPGAQPGQEPGAQPGQEPGAQPGQEPGAQPGQEPGAQPGQEPGAQPGQEPGAQPARQGDHCPLGPGRCCRLHTVRASLEDLGWADWVLSPREVQVTMCIGACPSQFRAANLHAQIKTSLHRLKPDTVPAPCCVPASYNPMVLIQKTDTGVSLQTYDDLLAKDCHCI : reported GDF15 activity (EC50, pM) = ?
[reply] 50

[ask] Entry MLC021 (ligand) HGEGTFTSDVSSYLEEQAAKEFIAWLVRGGGGQEPGAQPGQEPGAQPGQEPGAQPGQEPGAQPGQEPGAQPGQEPGAQPGAQPGAQPGAQPGAQPGAQPGAQPGAQPGAQPARQGDHCPLGPGRCCRLHTVRASLEDLGWADWVLSPREVQVTMCIGACPSQFRAANLHAQIKTSLHRLKPDTVPAPCCVPASYNPMVLIQKTDTGVSLQTYDDLLAKDCHCI : reported GDF15 activity (EC50, pM) = ?
[reply] 67.3

[ask] Entry MLC043 (ligand, Moiety A (HOOC-(CH2)16-CO-gGlu-2XADO) on 26K of GLP-1 (20K of fusion polypeptide)) HGEGTFTSDVSSYLEEQAAKEFIAWLVRGGGGQEPGAQPGQEPGAQPGQEPGAQPGQEPGAQPGQEPGAQPGQEPGAQPGAQPGAQPGAQPARQGDHCPLGPGRCCRLHTVRASLEDLGWADWVLSPREVQVTMCIGACPSQFRAANLHAQIKTSLHRLRPDTVPAPCCVPASYNPMVLIQRTDTGVSLQTYDDLLARDCHCI : reported GDF15 activity (EC50, pM) = ?
[reply] 39

[ask] Entry MLC080 (ligand, Moiety B (HOOC-(CH2)16-CO-gGlu-2XADO-EDA-CO-CH2) on 35C of Linker (66C of fusion polypeptide)) HGEGTFTSDVSSYLEEQAAKEFIAWLVRGGGGQEPGAQPGQEPGAQPGQEPGAQPGQEPGAQPGQCPGAQPGQEPGAQPGQEPGAQPGAQPGAQPGAQPGAQPGAQPGAQPARQGDHCPLGPGRCCRLHTVRASLEDLGWADWVLSPREVQVTMCIGACPSQFRAANLHAQIKTSLHRLKPDTVPAPCCVPASYNPMVLIQKTDTGVSLQTYDDLLAKDCHCI : reported GDF15 activity (EC50, pM) = ?
[reply] 86.8

[ask] Entry MLC124 (ligand) HGEGTFTSDVSSYLEEQAAKEFIAWLVRGGGGQEPGAQPGQEPGAQPGQEPGAQPGQEPGAQPGQEPGAQPGQEPGAQPGAQPGAQPGAQPARQGDHCPLGPGRCCRLHTVRASLEDLGWADWVLSPREVQVTMCIGACPSQFRAANLHAQIKTSLHRLRPDTVPAPCCVPASYNPMVLIQRTDTGVSLQTYDDLLARDCHCI : reported GDF15 activity (EC50, pM) = ?
[reply] 27.5
